melting point: recorded values

SUBSTANCE_SMILES | melting point
Cc1cnc2c(c1)c(C#N)c(-c1ccc(S(=O)(=O)N[C@@H](C)C(F)(F)F)cn1)n2-c1ccnnc1 | 196 to 198 °C
C[C@H](NS(=O)(=O)c1ccc(-c2c(C#N)c3cc(F)cnc3n2-c2cc(F)ccn2)nc1)C(F)(F)F | 186 to 188 °C
Cc1cnc2c(c1)c(C#N)c(-c1ccc(S(=O)(=O)N[C@@H](C)C(F)(F)F)cn1)n2-c1cccnn1 | 150 to 153 °C
CC(C)(C)NS(=O)(=O)c1ccc(-c2c(C#N)c3cc(Cl)cnc3n2C2CCC2)nc1 | 207 to 208 °C
Cc1cnc2c(c1)c(C#N)c(-c1ccc(S(=O)(=O)N[C@@H](C)C(F)(F)F)cn1)n2-c1cncs1 | 176 to 178 °C
C[C@H](NS(=O)(=O)c1ccc(-c2c(C#N)c3cc(C(F)(F)F)cnc3n2-c2ncccn2)nc1)C(F)(F)F | 213 to 215 °C
CC(C)NS(=O)(=O)c1ccc(-c2c(C#N)c3cc(C(F)F)cnc3n2C2CCC2)nc1 | 189 to 190 °C

----------
PROPERTY_LABEL: melting point

MOLECULE | PROPERTY_LABEL | RESULT
CCc1cnc2c(c1)c(C#N)c(-c1ccc(S(=O)(=O)N[C@@H](C)C(F)(F)F)cn1)n2-c1cc(F)ccn1 [Cpd 412] | melting point | 201 to 205 °C
CN(Cc1ccccc1)c1cnc2c(c1)c(C#N)c(-c1ccc(S(=O)(=O)NC(C)(C)C)cc1)n2C1CCC1 [Cpd 351] | melting point | 168 to 171 °C
Cc1cc2c(cn1)c(C#N)c(-c1ncc(S(=O)(=O)NC(CF)CF)cn1)n2C1CCC1 [Cpd 27] | melting point | 234 to 236 °C
Cc1cnc2c(C#N)c(-c3ccc(S(=O)(=O)N[C@@H](C)C(F)(F)F)cn3)n(-c3ncccn3)c2c1 [Cpd 475] | melting point | 226 to 228 °C
N#Cc1c(-c2ccc(NS(=O)(=O)C3CCC3)cc2)n(C2CCCCC2)c2ncc(C(F)(F)F)cc12 [Cpd 428] | melting point | 234 to 236 °C
CCc1cnc2c(c1)c(C#N)c(-c1ccc(S(=O)(=O)N[C@@H](C)C(F)(F)F)cn1)n2-c1nccs1 [Cpd 512] | melting point | 229 to 231 °C
NC(=O)c1c(-c2ccc(S(=O)(=O)NC3(C(F)(F)F)CC3)cn2)n(C2CCC2)c2ncc(Cl)cc12 [Cpd 325] | melting point | 238 to 240 °C
Cc1cc(S(=O)(=O)N[C@@H](C)C(F)(F)F)cnc1-c1c(C#N)c2cc(Cl)cnc2n1C1CCCC1 [Cpd 290] | melting point | 240 to 245 °C
CC(C)(NS(=O)(=O)c1ccc(-c2c(C#N)c3cc(C4CC4)cnc3n2C2CCC2)cc1)C(F)(F)F [Cpd 121] | melting point | 207 to 212 °C
CC(C)NS(=O)(=O)c1cnc(-c2c(C#N)c3cnc(Cl)cc3n2C2CCCC2)nc1 [Cpd 85] | melting point | 249 to 250 °C
CCc1cnc2c(c1)c(C(N)=O)c(-c1ccc(S(=O)(=O)NC3(C(F)(F)F)CC3)cc1)n2C1CCC1 [Cpd 379] | melting point | 173 to 179 °C
C[C@H](NS(=O)(=O)c1ccc(-c2c(C#N)c3cc(F)cnc3n2-c2ccccn2)nc1)C(F)(F)F [Cpd 322] | melting point | 229 to 231 °C
C[C@H](NS(=O)(=O)c1ccc(-c2c(C#N)c3cc(F)cnc3n2-c2cnccn2)nc1)C(F)(F)F [Cpd 321] | melting point | 212 to 214 °C
Cc1cnc2c(c1)c(C#N)c(-c1ccc(S(=O)(=O)N[C@@H](C)C(F)(F)F)cn1)n2C(C)C [Cpd 493] | melting point | 157 to 162 °C
Cc1ccc2c(C#N)c(-c3ccc(S(=O)(=O)NC(C)C)nc3)n(C3CCC3)c2n1 [Cpd 96] | melting point | 211 to 216 °C
Cc1cc2c(cn1)c(C#N)c(-c1ccc(S(=O)(=O)NC(CF)CF)cn1)n2C1CCC1 [Cpd 26] | melting point | 216 to 218 °C
C[C@H](NS(=O)(=O)c1cnc(-c2c(C#N)c3cc(Cl)cnc3n2C2CCCC2)nc1)C(F)(F)F [Cpd 25] | melting point | 206 to 208 °C
N#Cc1c(-c2ccc(S(=O)(=O)NC3(C(F)(F)F)CC3)cn2)n(C2CCC2)c2ncc(Cl)cc12 [Cpd 57] | melting point | 254 to 255 °C
COc1ccc2c(C#N)c(-c3ccc(S(=O)(=O)NC(CF)CF)cn3)n(C3CCC3)c2n1 [Cpd 41] | melting point | 194 to 195 °C
CC1(S(=O)(=O)Nc2ccc(-c3c(C#N)c4cc(C(F)(F)F)cnc4n3C3CCCCC3)cc2)CC1 [Cpd 426] | melting point | 255 to 256 °C
CC[C@H](NS(=O)(=O)c1ccc(-c2c(C#N)c3cc(OC)cnc3n2C2CCC2)nc1)C(F)(F)F [Cpd 232] | melting point | 186 to 191 °C
C[C@H](NS(=O)(=O)c1ccc(-c2c(C#N)c3cc(C(F)(F)F)cnc3n2-c2cnccn2)nc1)C(F)(F)F [Cpd 316] | melting point | 226 to 228 °C
N#Cc1c(-c2ncc(S(=O)(=O)NC(CF)CF)cn2)n(C2CCC2)c2cc(Cl)ncc12 [Cpd 101] | melting point | 237 to 238 °C
Cc1cnc2c(c1)c(C#N)c(-c1cc(C)c(S(=O)(=O)N[C@@H](C)C(F)(F)F)cn1)n2C1CCC1 [Cpd 289] | melting point | 218 to 223 °C
CC1(NS(=O)(=O)c2cnc(-c3c(C#N)c4cc(Cl)cnc4n3C3CCC3)nc2)CC1 [Cpd 286] | melting point | 237 to 240 °C
CC(C)(C)NS(=O)(=O)c1ccc(-c2c(C(N)=O)c3cc(F)cnc3n2-c2ccccc2)nc1 [Cpd 527] | melting point | 275.2 to 276.9 °C
CCc1cnc2c(c1)c(C#N)c(-c1ccc(S(=O)(=O)N[C@@H](C)C(F)(F)F)cn1)n2-c1ccccn1 [Cpd 414] | melting point | 190 to 195 °C
CCCS(=O)(=O)Nc1ccc(-c2c(C#N)c3cc(C(F)(F)F)cnc3n2C2CCC2)cc1 [Cpd 247] | melting point | 180 to 181 °C
CC1(NS(=O)(=O)c2ccc(-c3c(C#N)c4cnc(Cl)cc4n3C3CCCC3)nc2)CC1 [Cpd 84] | melting point | 209 to 211 °C
CC(C)(C)NS(=O)(=O)c1ccc(-c2c(C#N)c3cc(C(F)(F)F)cnc3n2-c2ccc(F)cc2)nc1 [Cpd 517] | melting point | 228.3 to 229.4 °C
CC(C)(C)NS(=O)(=O)c1ccc(-c2c(C#N)c3cc(C(F)(F)F)cnc3n2-c2ncccn2)cc1 [Cpd 334] | melting point | 228 to 230 °C

----------
melting point: recorded values

SUBSTANCE_SMILES | melting point
C[C@H](NS(=O)(=O)c1ccc(-c2c(C#N)c3cc(Cl)cnc3n2-c2ccccc2)nc1)C(F)(F)F | 211 to 213 °C
N#Cc1c(-c2ccc(S(=O)(=O)NC3CC3)cn2)n(C2CCC2)c2ncc(C3CC3)cc12 | 169 to 174 °C
Cc1cnc2c(c1)c(C#N)c(-c1ncc(S(=O)(=O)NC(C)C)cn1)n2C1CCC1 | 187 to 190 °C
Cc1cnc2c(C#N)c(-c3ncc(S(=O)(=O)NC(C)C)cn3)n(C3CCCC3)c2c1 | 263 to 265 °C
C[C@H](NS(=O)(=O)c1ccc(-c2c(C#N)c3cc(C(F)(F)F)cnc3n2C2CCCCC2)cc1)C(F)(F)F | 190 to 192 °C
CC(C)(C)NS(=O)(=O)c1ccc(-c2c(C#N)c3cc(C(F)(F)F)cnc3n2-c2ccccc2)cc1 | 206 to 208 °C
N#Cc1c(-c2ccc(NS(=O)(=O)C3CC3)cc2)n(C2CCC2)c2ncc(C(F)F)cc12 | 193 to 195 °C
Cc1cnc2c(c1)c(C(N)=O)c(-c1ccc(S(=O)(=O)NC(C)(C)C(F)(F)F)cc1)n2C1CCC1 | 235 to 237 °C
CCc1cnc2c(c1)c(C#N)c(-c1ccc(S(=O)(=O)N[C@H](C)C(F)(F)F)cc1)n2C1CCC1 | 194 to 201 °C
Cc1cnc2c(c1)c(C#N)c(-c1ccc(S(=O)(=O)NC(C)(C)C)cn1)n2C1CCC1 | 173 to 175 °C
C[C@@H](NS(=O)(=O)c1ccc(-c2c(C#N)c3cc(Cl)cnc3n2CC2CC2)nc1)C(F)(F)F | 224 to 226 °C
N#Cc1c(-c2ncc(S(=O)(=O)NC(CF)CF)cn2)n(C2CCCC2)c2ncc(Cl)cc12 | 247 to 248 °C
Cc1ccc2c(C#N)c(-c3ccc(S(=O)(=O)NC(CF)CF)cn3)n(C3CCC3)c2n1 | 180 to 188 °C
CCc1cnc2c(c1)c(C#N)c(-c1ccc(S(=O)(=O)N[C@@H](C)C(F)(F)F)cn1)n2-c1cnccn1 | 195 to 200 °C
Cc1cnc2c(C#N)c(-c3ccc(S(=O)(=O)N[C@@H](C)C(F)(F)F)cn3)n(-c3ccccn3)c2c1 | 242 to 244 °C
N#Cc1c(-c2ccc(S(=O)(=O)NC3(C(F)(F)F)CC3)cn2)n(C2CCCC2)c2cc(Cl)ncc12 | 225 to 227 °C
